Assay: TOR pathway LAP4-GFP level changes – S. cerevisiae, multiplex flow cytometry, primary screen (AID 1873)
Details: S. cerevisiae LAP4-GFP expression, 3 h, at 10 µM, stronger effect = higher value
Results filed as inconclusive are left out.
Readings of GFP response vs DMSO for the listed compounds
Kindly provide the numeric value in % only, without the unit symbol.

// known answers, use as guide
COC(=O)CN1C(=S)N(c2ccc(F)cc2)C(=O)C1CC(=O)Nc1ccccc1 (centres undefined) | 120
Nc1ccc2nc(Cc3ccccc3)[nH]c2c1 | 82.5
CN(C)CCOC(=O)C(c1ccccc1)C1(O)CCCC1 (centres undefined) | 75.9

Let us examine a further case.
Q) Looking for the measured GFP response vs DMSO of `C[C@H]1O[C@@H](O[C@H]2[C@@H](O)C[C@H](O[C@H]3[C@@H](O)C[C@H](O[C@H]4CC[C@@]5(C)[C@H](CC[C@@H]6[C@@H]5C[C@@H](O)[C@]5(C)[C@@H](C7=CC(=O)OC7)CC[C@]65O)C4)O[C@@H]3C)O[C@@H]2C)C[C@H](O)[C@@H]1O` , can you help?
A) 93.7

###

inhibition overview
Target: ATP-binding cassette sub-family B member 6 (Homo sapiens) (UniProt Q9NP58)
Sequence (Q9NP58 whole entry, looked up): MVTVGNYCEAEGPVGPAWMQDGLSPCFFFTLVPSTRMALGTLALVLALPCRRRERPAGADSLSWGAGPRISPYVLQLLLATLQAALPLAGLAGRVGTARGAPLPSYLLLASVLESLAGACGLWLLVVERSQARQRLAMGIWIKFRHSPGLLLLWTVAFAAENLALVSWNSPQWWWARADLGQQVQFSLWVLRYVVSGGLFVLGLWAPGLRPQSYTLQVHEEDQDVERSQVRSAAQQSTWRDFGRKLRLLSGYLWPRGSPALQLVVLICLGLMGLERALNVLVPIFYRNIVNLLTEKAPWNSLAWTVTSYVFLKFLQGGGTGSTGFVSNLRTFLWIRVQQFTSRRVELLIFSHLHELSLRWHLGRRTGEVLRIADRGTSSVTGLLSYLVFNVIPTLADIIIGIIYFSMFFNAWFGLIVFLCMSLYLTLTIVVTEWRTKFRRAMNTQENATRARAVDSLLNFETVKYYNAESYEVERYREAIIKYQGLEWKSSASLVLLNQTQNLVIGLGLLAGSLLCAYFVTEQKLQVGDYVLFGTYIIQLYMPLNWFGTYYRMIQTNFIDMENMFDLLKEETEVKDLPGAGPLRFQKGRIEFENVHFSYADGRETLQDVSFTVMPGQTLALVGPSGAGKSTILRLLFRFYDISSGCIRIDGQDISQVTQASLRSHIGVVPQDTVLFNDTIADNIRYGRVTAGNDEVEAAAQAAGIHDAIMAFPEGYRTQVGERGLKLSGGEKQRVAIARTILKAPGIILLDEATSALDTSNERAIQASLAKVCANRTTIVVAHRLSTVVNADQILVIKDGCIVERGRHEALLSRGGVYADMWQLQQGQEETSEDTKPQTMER
Assay: blockers of ABCB6-driven porphyrin uptake – K562-ABCB6 cells, flow cytometry, validation set, pilot screen (AID 588550);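 note: 0% = DMSO wells and 100% = benzethonium chloride 70 µM positive control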
Conditions: K562-ABCB6 porphyrin accumulation, 1 h, at 10 µM, stronger effect = higher value
Give just the numeric value; % need not be written.

C[N+](C)(C)CCCC(=O)c1ccc2c(c1)OCO2 | 8
Cc1cccc(-n2c(Cc3ccccc3)n[nH]c2=S)c1 | 4
Cc1ccccc1-c1nn(-c2ccc(F)cc2F)cc1CNCCN(C)C | -15
CC(=O)NC(NC(=S)N1CCCCCC1)C(Cl)(Cl)Cl (centres undefined) | -1
O=Cc1ccccc1Oc1ccccc1 | -2
COc1cc2cc(C)nc(Cc3cccc4ccccc34)c2cc1OC | -9

Q) Give the measured inhibition of `O=C1ON=C(c2ccc(Cl)cc2)/C1=C/c1ccc(O)cc1` .
A) 2

Q) Any idea what its inhibition is? The compound is `Cc1ccc(OCc2nc(-c3cccnc3)no2)cc1C`
A) 9

###

Experiment: TOR pathway LAP4-GFP level changes – S. cerevisiae, multiplex flow cytometry, primary screen (AID 1873)
Conditions: S. cerevisiae LAP4-GFP expression, 3 h, at 10 µM, stronger effect = higher value
Records with an inconclusive call do not appear.
Metric name: GFP response vs DMSO (%)
Note: unit % is implicit; provide only the numeric part.

Past entries and their recorded results:
COC(=O)c1ccc(C(=O)OC)c(NC(=O)C(C)C)c1 | 138
CN=C(NC#N)NCCSCc1nc[nH]c1C | 94.8
CC1(C)CC(CNCCC(c2ccc(F)cc2)c2ccco2)CCO1 (stereo unspecified) | 82.5

Q) Consider the compound shown here: `CCc1cc2c(=O)c(-c3nc(C)cs3)c(CCCC(=O)O)oc2cc1O` What is its recorded GFP response vs DMSO?
A) 98

Q) GFP response vs DMSO for Cc1onc(-c2c(Cl)cccc2Cl)c1C(=O)NC1C(=O)N2C1SC(C)(C)C2C(=O)O (stereo unspecified) ?
A) 117

Q) Recorded GFP response vs DMSO of CCCCCCCCNC(C)C(O)c1ccc(SC(C)C)cc1 (stereo unspecified) , please.
A) 85.3
